Test: qHTS RealTime-Glo MT Cell Viability Assay in HEK293 cells - 40 hour (AID 1224874); also: % is scaled to controls: 0 for no effect and ±100 for the full control effect; nearly all actives have a fitted effect of over 50% in size
Settings: RealTime-Glo luminescence; active compounds read low
Records with an inconclusive call do not appear.
measurement label: max response (%)
The response must be a number in % with no trailing unit.

INSERT INTO measurements (compound, data_value) VALUES
  ('COC(=O)[C@]1(C)CCC[C@@]2(C)[C@H]1CC=C1C=C(C(C)C)CC[C@@H]12', -2.95);

Qu. Can you look up the measured max response of `Cn1cccc1` for me?
Ans. 10.4

Qu. # get_value(readout='max response', item= `Cc1ccc(O)cn1` )
Ans. -9.02

Qu. Which max response is reported for this compound? `Cc1cccc(N(C)C)c1`
Ans. 7.91

Qu. Sample `N[C@@H](CSSC[C@H](N)C(=O)O)C(=O)O` — what was its max response?
Ans. 2.95

Qu. Can you look up the measured max response of `Clc1cccnc1` for me?
Ans. 0.202

Qu. Which max response is reported for this compound? CC(COC(=O)c1ccccc1)OC(=O)c1ccccc1 (stereo unspecified)
Ans. -5.23

Qu. Recorded max response of `SCCCCCCCCS` , please.
Ans. 9.16

Qu. Given the entry `CCCCCCCCCCc1ccccc1` , report its measured max response.
Ans. -5.33

Qu. Entry `O=S(O)O` has what max response?
Ans. 7.9

Qu. Would you mind telling me what max response value was observed for `C=CCCCCCCC=C` ?
Ans. 0.211

Qu. Any idea what max response was measured for `NC(=O)c1ccccc1N` ?
Ans. -1.93

Qu. Please give the measured max response for this compound: `CC(C)(c1cc(Br)c(O)c(Br)c1)c1cc(Br)c(O)c(Br)c1`
Ans. -17.7

Qu. # max response lookup, item `O=C(O)CC(=O)O`
Ans. 11.5

Qu. // lookup max response for `C[Si](C)(C)Cl`
Ans. 8.44

Qu. Dear colleague, I am looking for the recorded max response of the following compound: `C=CC/C=C/C/C=C/C/C=C/C`
Ans. 0

* * *

Target: Nuclear receptor ROR-gamma (Homo sapiens) (UniProt P51449)
Test: qHTS assay to identify small molecule antagonists of the retinoid-related orphan receptor gamma (ROR-gamma) signaling pathway (AID 1159521; also: nearly all actives have a fitted effect of over 50% in size)
Conditions: Tet-on RORgamma CHO cells, RORE-luciferase, 16 h; series mostly up to 92.4 µM
Protocol: U.S. Tox21 Program National Center for Advancing Translational Sciences [NCATS] NIH Chemical Genomics Center [NCGC] U.S. Environmental Protection Agency [EPA] National Institutes of Environmental Health Sciences [NIEHS] National Toxicology Program [NTP] U.S. Food and Drug Administration [FDA] […] Reporter gene activity was induced using Doxycycline Hyclate and measured after 16 hr incubation. […]
Records with an inconclusive call do not appear. Activity calls are given as the source filed them. Calls come from the whole dose curve; as a rule, active = well fitted inhibition curve with a large enough effect in the repeat runs; inconclusive = weak or mixed curves, or effect the other way; inactive = no such curve, though single readings can be large or run the other way.
The reply should name one outcome from TRUE for active, FALSE for inactive

INSERT INTO results (structure_string, group) VALUES
  ('NC(=O)c1nc(-c2cccc(-c3cc(F)ccc3OCC(F)(F)C(F)(F)F)c2)n[nH]1', 'TRUE'),
  ('O=C(Nc1ccc(Cl)cc1)Nc1ccc(Cl)c(C(F)(F)F)c1', 'TRUE'),
  ('CC(=O)Oc1ccc(C2(c3ccc(OC(C)=O)cc3)C(=O)Nc3ccccc32)cc1', 'FALSE'),
  ('O=C1NCN(c2ccccc2)C12CCN(CCCC(c1ccc(F)cc1)c1ccc(F)cc1)CC2', 'TRUE'),
  ('C[Si](C)O[Si](C)C', 'FALSE');

Qu. Lab log entry: `CC(C)CCOCCC(C)C` — outcome as called in the assay?
Ans. FALSE

* * *

Assay: qHTS assay to identify small molecule agonists of the RXR signaling pathway - cell viability counter screen (AID 1159529); also: nearly all actives have a fitted effect of over 50% in size
Conditions: RXR-alpha-bla HEK293T viability, CellTiter-Glo, 16 h; series mostly up to 76.8 µM
Inconclusive results are not listed. Activity calls are given as the source filed them. Calls come from the whole dose curve; as a rule, active = well fitted cell-killing curve with a large enough effect in the repeat runs; inconclusive = weak or mixed curves, or effect the other way; inactive = no such curve, though single readings can be large or run the other way.
Hi! Could you answer with just one of these? class 1 = active, class 0 = inactive

INSERT INTO results (compound, group) VALUES
  ('CCCCN(CCCC)CCC(O)c1cc2c(Cl)cc(Cl)cc2c2cc(C(F)(F)F)ccc12 (stereo not given)', 'class 1');

Qu. Test call for this compound, please: `O=Cc1ccc(F)cc1`
Ans. class 0

Qu. Look up the recorded call for `Cc1ccc(CCn2c3c(c4cc(Cl)ccc42)CN(C)CC3)cn1` in this test.
Ans. class 1

Qu. Per the assay record, what outcome was assigned to `Clc1cccnc1` ?
Ans. class 0

Qu. Hi, do you know how `C[C@@]12C(=O)OC(=O)[C@]1(C)C1CCC2O1` came out in this test?
Ans. class 0

Qu. How was `[O]=[Zr]` classified in this test?
Ans. class 0

Qu. For this compound, state the assay outcome: C=CC(C)C#N (stereo not given)
Ans. class 0

* * *

Test: qHTS assay to identify small molecule agonists of the progesterone receptor (PR) signaling pathway - cell viability counter screen (AID 1346799); also: nearly all actives have a fitted effect of over 45% in size; also: potency is read from the fitted curve at half-maximal effect
Settings: PR-UAS-bla HEK293T viability, CellTiter-Glo luminescence, 16 h; series mostly up to 92.4 µM
Results filed as inconclusive are left out. Calls of active or inactive are those of the source. The call rests on the fitted dose curve.
measurement label: Potency

# example entries with known answers
INSERT INTO measurements (compound, measurement_label, data_value) VALUES
  ('COC(=O)C1=C(C)NC(C)=C(C(=O)OCCCN2CCC(c3ccccc3)(c3ccccc3)CC2)C1c1cccc([N+](=O)[O-])c1 (stereo not drawn)', 'Potency', '13.3 µM (active)'),
  ('CC(=O)c1ccccc1N', 'Potency', 'inactive'),
  ('CC[N+](CC)(CC)Cc1ccccc1', 'Potency', 'inactive'),
  ('CCCCCCCCCCOCC(O)CN (stereo not drawn)', 'Potency', '29.8 µM (active)');

Qu. For `CCCCCCCCCCCCCOP(=O)(O)O` , what is its reported Potency?
Ans. inactive

Qu. I am curious: what Potency value has been reported for `CO[C@H]1C=CO[C@@]2(C)Oc3c(C)c(O)c4c(O)c(cc(O)c4c3C2=O)NC(=O)/C(C)=C\C=C/[C@H](C)[C@H](O)[C@@H](C)[C@@H](O)[C@@H](C)[C@H](OC(C)=O)[C@@H]1C` ?
Ans. inactive

Qu. Which Potency value is on record for `CCN(CC)c1ccc(N)cc1` ?
Ans. 44.5 µM (active)

Qu. I would be grateful if you could share the reported Potency for `c1ccc2c(c1)CCC2` .
Ans. inactive

Qu. // returns reported Potency for input `CCCN(CCc1cccs1)[C@H]1CCc2c(O)cccc2C1`
Ans. inactive

* * *

Experiment: qHTS assay to identify small molecule agonists of the sonic hedgehog signaling (Shh) pathway - cell viability counter screen (AID 1259366); also: nearly all actives have a fitted effect of over 50% in size
Conditions: NIH/3T3 Gli1-Luc viability, CellTiter-Fluor, 24 h; series mostly up to 92.4 µM
Inconclusive results are not listed. Calls of active or inactive are those of the source. The call rests on the fitted dose curve; in most records, active means well fitted cell-killing curve with a large enough effect in the repeat runs; inconclusive means weak or mixed curves, or effect the other way; inactive means flat fitted curve, though single readings scatter.
Assign a class; possible classes are active, inactive

Answered cases to consult:
INSERT INTO assay_data (compound, group) VALUES
  ('C=C(C)CCCC', 'inactive'),
  ('CC1CCCCC1', 'inactive'),
  ('O[C@@H](c1cc(C(F)(F)F)nc2c(C(F)(F)F)cccc12)[C@H]1CCCCN1', 'active'),
  ('CCOC(OCC)C(=O)c1ccccc1', 'inactive'),
  ('Cc1cn[nH]c1', 'inactive'),
  ('CCCCCCC(C)OC(=O)COc1nc(F)c(Cl)c(N)c1Cl (stereo not given)', 'inactive'),
  ('O=C1C=CC(=O)N1c1ccccc1', 'active'),
  ('CCNc1nc(NC(C)CC)nc(OC)n1 (stereo not given)', 'inactive'),
  ('O=C(Oc1ccccc1)c1cccc(C(=O)Oc2ccccc2)c1', 'inactive'),
  ('C=CC(C)(CCC=C(C)C)OC(=O)/C=C/c1ccccc1 (stereo not given)', 'inactive');

Qu. Call for entry `O=C[C@H](O)[C@H](O)[C@H](O)CO` :
Ans. inactive

Qu. Which outcome was entered for the compound `Cn1cccc1` in this test?
Ans. inactive

Qu. Could you kindly confirm the outcome this assay logged for `CC1(C)C(=O)N(CO)C(=O)N1CO` ?
Ans. inactive

Qu. Check the results log: what was the call for `CC(=O)O[C@@H]1C[C@@H]2CC[C@@]1(C)C2(C)C` ?
Ans. inactive

Qu. So what was the verdict on CCCC(O)C(O)CO (stereo not given) in this test?
Ans. inactive

Qu. Record request — test call for `O=CC1CC1`
Ans. inactive

Qu. Hi team, can someone confirm the assay call for `CCCCCCCC(OC)OC` ?
Ans. inactive

Qu. How did this test come out for `CNCC[C@H](Oc1cccc2ccccc12)c1cccs1` ?
Ans. active

Qu. Test call, this compound: CC(COC(=O)c1ccccc1)OC(=O)c1ccccc1 (stereo not given)
Ans. inactive

Qu. Kindly provide the recorded test outcome for the following compound: `C[C@@H]1CC[C@H]2C(C)(C)[C@H]3C[C@@]12CC[C@@]3(C)O`
Ans. inactive

Qu. Would you mind telling me which call this test gave `Cc1cccc(Br)c1` ?
Ans. inactive

Qu. Field: outcome | Entry: `Cc1occc1SSc1ccoc1C`
Ans. inactive

Qu. Recorded call for `CC(C)c1ccc(O)c(C(C)C)c1` ?
Ans. inactive

Qu. Recorded call for `CCOC(=O)COc1ccc(C)cc1` ?
Ans. inactive
